Tested on: 945468-187-T-J3-PDC spheroids with HUVEC/MSC, viability;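 also: spheroids exposed to agents for 7 days before viability read; 100% = DMSO vehicle control viability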
protocol summary: Anticancer human tumor 945468-187-T-J3-PDC patient-derived rectal carcinoma cell line growth inhibition [PI3K]
measurement context: second compound 0.00316 µM; first compound 0.0316 µM; active compounds read low
reported endpoint: viability, T/C (%)
Please give a number only; it is taken to be in %.

# return recorded viability, T/C for entry CC(=O)c1c(C)c2cnc(Nc3ccc(N4CCNCC4)cn3)nc2n(C2CCCC2)c1=O + CC(Nc1ccc2c(c1)OCCn1cc(N3C(=O)OCC3C(F)F)nc1-2)C(N)=O
108

Kindly indicate its recorded viability, T/C. Item: CC(Cn1ccc(-c2ccc(C#N)c(Cl)c2)n1)NC(=O)c1cc(C(C)O)[nH]n1 (stereo not given) + CC(Nc1ccc2c(c1)OCCn1cc(N3C(=O)OCC3C(F)F)nc1-2)C(N)=O
95.2

Give the value of viability, T/C reported for the following: C#Cc1c(F)ccc2cc(O)cc(-c3ncc4c(N5CC6CCC(C5)N6)nc(OCC56CCCN5CC(F)C6)nc4c3F)c12 (stereo not given) + COc1c(OCCCN2CCOCC2)ccc2c3n(c(=NC(=O)c4cnc(N)nc4)nc12)CCN3
102

Output viability, T/C of Cn1ncc(Cl)c1-c1cc(C(=O)NC(CN)Cc2cccc(F)c2)sc1Cl (stereo not given) + CC(Nc1ccc2c(c1)OCCn1cc(N3C(=O)OCC3C(F)F)nc1-2)C(N)=O
100

Check the records and state viability, T/C for Cn1nccc1Nc1nccc(-c2ccn(C(CO)c3ccc(Cl)c(F)c3)c(=O)c2)n1 (stereo not given) + COc1c(OCCCN2CCOCC2)ccc2c3n(c(=NC(=O)c4cnc(N)nc4)nc12)CCN3
95.1

For the molecule CCCS(=O)(=O)Nc1ccc(F)c(C(=O)c2c[nH]c3ncc(-c4ccc(Cl)cc4)cc23)c1F + CC(Nc1ccc2c(c1)OCCn1cc(N3C(=O)OCC3C(F)F)nc1-2)C(N)=O , give its measured viability, T/C value.
105

Identify the reported viability, T/C for the following entry. C=CC(=O)N1CCN(c2nc(=O)n(-c3c(C)ccnc3C(C)C)c3nc(-c4c(O)cccc4F)c(F)cc23)C(C)C1 (stereo not given) + COc1c(OCCCN2CCOCC2)ccc2c3n(c(=NC(=O)c4cnc(N)nc4)nc12)CCN3
97.2

Annotate the molecule CC(C)n1nc(-c2ccc3oc(N)nc3c2)c2c(N)ncnc21 + COc1c(OCCCN2CCOCC2)ccc2c3n(c(=NC(=O)c4cnc(N)nc4)nc12)CCN3 with its measured viability, T/C.
92.8

Dear colleague, please send me the reported viability, T/C for CC(=O)c1c(C)c2cnc(Nc3ccc(N4CCNCC4)cn3)nc2n(C2CCCC2)c1=O + COc1c(OCCCN2CCOCC2)ccc2c3n(c(=NC(=O)c4cnc(N)nc4)nc12)CCN3 when you can.
103

Dear colleague, please send me the reported viability, T/C for CC1(C)CCC(CN2CCN(c3ccc(C(=O)NS(=O)(=O)c4ccc(NCC5CCOCC5)c([N+](=O)[O-])c4)c(Oc4cnc5[nH]ccc5c4)c3)CC2)=C(c2ccc(Cl)cc2)C1 + COc1c(OCCCN2CCOCC2)ccc2c3n(c(=NC(=O)c4cnc(N)nc4)nc12)CCN3 when you can.
93.4

Please give measured viability, T/C of the following entry: Cn1ncc(Cl)c1-c1cc(C(=O)NC(CN)Cc2cccc(F)c2)sc1Cl (stereo not given) + COc1c(OCCCN2CCOCC2)ccc2c3n(c(=NC(=O)c4cnc(N)nc4)nc12)CCN3
88.3

For the molecule Cn1ncnc1[C@H]1c2n[nH]c(=O)c3cc(F)cc(c23)N[C@@H]1c1ccc(F)cc1 + COc1c(OCCCN2CCOCC2)ccc2c3n(c(=NC(=O)c4cnc(N)nc4)nc12)CCN3 , give its reported viability, T/C.
117

// Input: C[C@@H](NC(=O)c1ncnc(N)c1Cl)c1ncc(C(=O)Nc2cc(C(F)(F)F)c(Cl)cn2)s1 + CC(Nc1ccc2c(c1)OCCn1cc(N3C(=O)OCC3C(F)F)nc1-2)C(N)=O . Output its viability, T/C only.
97.2

Given CC(C)n1nc(-c2ccc3oc(N)nc3c2)c2c(N)ncnc21 + CC(Nc1ccc2c(c1)OCCn1cc(N3C(=O)OCC3C(F)F)nc1-2)C(N)=O , respond with its viability, T/C.
118

Give the value of viability, T/C reported for the following: CC(C)NCC(C(=O)N1CCN(c2ncnc3c2C(C)CC3O)CC1)c1ccc(Cl)cc1 (stereo not given) + CC(Nc1ccc2c(c1)OCCn1cc(N3C(=O)OCC3C(F)F)nc1-2)C(N)=O
93.8
